The origin of these recorded values is patent US10519152B2.

Each entry below carries its reported IC50.
Biological target: recombinant human Estrogen Receptor alpha ligand binding domain, residues 307-554 (ER alpha-LBD (GST)) (Homo sapiens)
Sequence (P03372 307-554): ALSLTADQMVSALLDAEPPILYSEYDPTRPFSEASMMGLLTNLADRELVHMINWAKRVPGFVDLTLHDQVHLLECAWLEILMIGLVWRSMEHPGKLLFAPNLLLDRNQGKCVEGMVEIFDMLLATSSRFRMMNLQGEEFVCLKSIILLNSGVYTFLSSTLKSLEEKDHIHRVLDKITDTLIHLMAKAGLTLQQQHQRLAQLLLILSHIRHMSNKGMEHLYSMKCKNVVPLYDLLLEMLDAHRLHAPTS
Experiment: ERα binding assay (LanthaScreen TR-FRET competition)
Settings: TR-FRET competition with Fluormone ES2 tracer, 4 hours at room temperature; single experiment or average of two or more
Field: numeric (nM). Do not append units.

Some compounds with known IC50 results, for comparison:
Cc1ncsc1-c1ccc(CNC(=O)[C@@H]2C[C@@H](O)CN2C(=O)[C@@H](NC(=O)CCCNCCCCCCOc2cc(F)c([C@@H]3c4[nH]c5ccccc5c4C[C@@H](C)N3CC(C)(C)F)c(F)c2)C(C)(C)C)cc1: 3.6
Cc1ncsc1-c1ccc(CNC(=O)[C@@H]2C[C@@H](O)CN2C(=O)[C@@H](NC(=O)COCCOCCOCCCNC(=O)c2cc(F)c([C@@H]3c4[nH]c5ccccc5c4C[C@@H](C)N3CC(C)(C)F)c(F)c2)C(C)(C)C)cc1: 1.3
Cc1ncsc1-c1ccc(CNC(=O)[C@@H]2C[C@@H](O)CN2C(=O)[C@@H](NC(=O)COCCC(F)(F)CCOc2cc(F)c([C@@H]3c4[nH]c5ccccc5c4C[C@@H](C)N3CC(C)(C)F)c(F)c2)C(C)(C)C)cc1: 0.9

Determine from records and report IC50 for Cc1ncsc1-c1ccc(CNC(=O)[C@@H]2C[C@@H](O)CN2C(=O)[C@@H](NC(=O)COCCCCCOc2cc(F)c([C@@H]3c4[nH]c5ccccc5c4C[C@@H](C)N3CC(F)(F)CO)c(F)c2)C(C)(C)C)cc1
0.8

Note down IC50 recorded for Cc1ncsc1-c1ccc(CNC(=O)[C@@H]2C[C@@H](O)CN2C(=O)[C@@H](NC(=O)COCCCCCCCCOc2ccc([C@@H]3c4[nH]c5ccccc5c4C[C@@H](C)N3CC(F)F)nc2)C(C)(C)C)cc1
5

Quote IC50 reported for Cc1ncsc1-c1ccc(CNC(=O)[C@@H]2C[C@@H](O)CN2C(=O)[C@@H](NC(=O)C2(OCCCCCCOc3cc(F)c([C@@H]4c5[nH]c6ccccc6c5C[C@@H](C)N4CC(C)(C)F)c(F)c3)CC2)C(C)(C)C)cc1 please.
0.7

State, in one line, measured IC50 of Cc1ncsc1-c1ccc(CNC(=O)[C@@H]2C[C@@H](O)CN2C(=O)[C@@H](N(C)C(=O)COCCOCCOCCOc2cc(F)c([C@@H]3c4[nH]c5ccccc5c4C[C@@H](C)N3CC(C)(C)F)c(F)c2)C(C)(C)C)cc1
0.6

Please indicate IC50 recorded for Cc1ncsc1-c1ccc(CNC(=O)[C@@H]2C[C@@H](O)CN2C(=O)[C@@H](NC(=O)COCc2cccnc2COc2cc(F)c([C@@H]3c4[nH]c5ccccc5c4C[C@@H](C)N3CC(C)(C)F)c(F)c2)C(C)(C)C)cc1
0.7

Please supply the value of reported IC50 for the item Cc1ncsc1-c1ccc(CNC(=O)C2CC(O)CN2C(=O)C(NC(=O)COCCOc2cc(F)c(C3c4[nH]c5ccccc5c4CC(C)N3CC(C)(C)F)c(F)c2)C(C)(C)C)cc1 (stereo not drawn)
1.3
